experiment: yeast display, Sf9 membrane polyspecificity reagent, FACS + sequencing; frameworks hold sequencing errors

entry sequence	polyreactivity (PSR sort gate)
QVQLVESGGGLVQAGGSLRLSCAASGGTFEYYAMGWDRQAPGKESELVAGITGGGVSTYYADSVKGRFTISRDNAKNPVYLQKNSLKPEDTAVYYSAAAYYQDNFWWYYYWGQGTQVNVSS	high polyreactivity
QVQLVESGGGLVQAGGSLRLSCDASGITITEYARGWYRQAPGTERELVAVISSVGTMYYADSVKGRFTISRDNEKNTVYLQMKSLKPEDTAVYYCAADYTDDGEYPYWSGSDYWGQGTQVTVSS	low polyreactivity
QVQLVESGGGLVQAGGSLRLSCAASGGISLYYVMGWYRQAPGKERELVADISADDSTNYADSVKGRFTISRDNAKNTVYLQMNSLKPEDTAVYYCAAVPGLFYLPYDYWGQGTQVTVSS	low polyreactivity
QVQLVESGGGLVQAGGSLRLSCAASGFTFDNYAMGWYRQAPGKERELVAAINWSGDRTYYADSVKGRFTISRDNAKNTVYLQMNSQIPEDTAVYYCNAVTSWAGSLDYWGQGTQVTVSS	high polyreactivity
QVHLVESGGGLVQAGVSLRLSCAASGSTFRRNAMGWYRQEPGKERELVAAISTSGGTTYYADSVKGRFTISRDNAKNTVYLEMNSLKPEDTAVYYCNADVYVWNYKYYSSGQGTQVTVSS	high polyreactivity
